Tested on: NCI-H226 lung
Method notes: NCI-60 one-dose screen, 48 h (100 = growth as untreated, 0 = no growth, -100 = all killed)
Test conditions: 10 µM unless noted
Compounds without any hit were thinned out: in the full panel of roughly 83,000, 20% have a hit.
Readout: growth (%)
Lab book: enter the figure in %, no units written.

compound=O=C(Nc1nc2ccc([N+](=O)[O-])cc2s1)Nc1ccc(Cl)cc1Cl readout=growth measurement=61.1
compound=CN(C)c1nc(NCCNS(=O)(=O)c2ccc(C(=O)/C=C/c3ccc(C(F)(F)F)cc3)cc2)nc(N2CCOCC2)n1 readout=growth measurement=60.8
compound=COc1ccc(NC(=O)Nc2nc3ccc([N+](=O)[O-])cc3s2)cc1 readout=growth measurement=6.28
compound=Cc1cn(-c2cc(NC(=O)c3ccc(C)c(-n4cc(-c5cnc6cccnn56)nn4)c3)cc(C(F)(F)F)c2)cn1 readout=growth measurement=68.8
compound="CN(C(=O)CN1C(=O)/C(=C/c2ccco2)SC1=S)C1CCS(=O)(=O)C1 (stereo unspecified)" readout=growth measurement=100

Problem: Answer briefly: growth recorded on NCI-H226 lung for `N#C/C(=C/c1ccc(Cl)cc1)c1nnc(NC(=O)c2ccc(-n3c(=O)[nH]c4ccccc4c3=O)cc2)s1`
Solution: 2.1

Problem: State growth on NCI-H226 lung. Entry: `COc1cc(CNC(=O)C[C@H](C)CCC=C(C)C)ccc1OCc1cn(-c2ccc(Cl)c(Cl)c2)nn1`
Solution: 50.5

Problem: Look up and report growth, with NCI-H226 lung as system, for `COc1nc(N)ncc1-c1ccc2ncnc(N3CCc4cc(F)c(Cl)cc43)c2c1`
Solution: -40.3

Problem: Report growth under test system NCI-H226 lung for `CN1CCN(C(=O)Oc2cc3c(c4ccccc24)[C@H](CCl)CN3C(=O)c2cc3cc(OCCCN4CCC4)ccc3[nH]2)[C@@H]2CSSC[C@H]21` .
Solution: -22.4

Problem: State recorded growth with NCI-H226 lung, entry `COC(=O)c1ccc(-c2c(-c3ccccc3)c(F)c3oc(C(=O)OC)c(N)c3c2-c2ccccc2)cc1` , no comment.
Solution: 100

Problem: Fill in: growth on NCI-H226 lung, entry `CC(C)CN1C(=O)/C(=C\C(=O)c2cc3ccccc3oc2=O)c2ccccc21`
Solution: 83.5

Problem: # return growth for CCc1ccc(SC2c3cc(OC)ccc3Oc3nc(N)c(C#N)c(N)c32)cc1 (stereo unspecified) , test system: NCI-H226 lung
Solution: -6.69

Problem: Tell me growth of `Cc1oc(-c2ccccc2)nc1CN[C@@H]1C[C@@H]2C[C@H]([C@H]1C)C2(C)C` when tested on NCI-H226 lung.
Solution: -29.8

###

Tested on: KM12 colon
Method notes: NCI-60 one-dose screen, 48 h (100 = growth as untreated, 0 = no growth, -100 = all killed)
Test conditions: 10 µM unless noted
Compounds without any hit were thinned out: in the full panel of roughly 83,000, 20% have a hit.
Recorded growth for the following compounds
Numeric answer only, unit % assumed.

Guide cases for growth, answers given:
compound="Fc1ccccc1CNc1nc(SCCN2CCOCC2)nc2c1cnn2CC(Cl)c1ccc(Br)cc1 (stereo not given)" reading_unit=% measurement=8.13
compound="O=C1CC(c2ccc(I)cc2)OC2C=Cc3ccccc3C12 (stereo not given)" reading_unit=% measurement=92.9
compound=Nc1nn2c(-c3cc4cc(Br)ccc4oc3=O)ccnc2c1N=Nc1ccc(S(N)(=O)=O)cc1 reading_unit=% measurement=48.3

Problem: Using KM12 colon as the test system, report measured growth of O=C(c1ccc(O)cc1)C1[C@H](c2ccc(Cl)cc2)[C@@H](c2ccccc2)NC12C(=O)Nc1ccccc12 (stereo not given in full) .
Solution: -13.7

Problem: Output reported growth of the compound CC1=C(C(=O)OCc2ccccc2)C(c2ccc(N(C)C)cc2)n2c(nc3ccccc32)N1 (stereo not given) on KM12 colon.
Solution: 73.4

###

System: HS 578T breast
Method notes: NCI-60 one-dose screen, 48 h (100 = growth as untreated, 0 = no growth, -100 = all killed)
Test conditions: 10 µM unless noted
Compounds without any hit were thinned out: in the full panel of roughly 83,000, 20% have a hit.
Readout: growth (%)
Just the number please, in %, no unit attached.

Observe how each entry below is paired with its result.
compound=COc1ccc(/C=C/C(=O)c2ccc(OC)c(S(N)(=O)=O)c2)c(C(F)(F)F)c1 reading_unit=% measurement=49.3
compound="CCOC(=O)/C(F)=C/C1CC1CCc1ccc(OCC)cc1 (stereo not drawn)" reading_unit=% measurement=94.5
compound=COc1c(B(O)O)cccc1-c1nc2ccc3cn[nH]c3c2c2c1CCCC2 reading_unit=% measurement=-17.9
compound="Cc1cc(C(NC(=O)C2CC3(CC(Nc4cccc5c4C(=O)N(C4CCC(=O)NC4=O)C5=O)C3)C2)c2ccc3c(c2)OC(F)(F)O3)c(O)c2ncccc12 (stereo not drawn)" reading_unit=% measurement=29.3
compound=Nc1cc(-c2c[nH]c3ccc(Cl)cc23)nc2cc(-c3c[nH]c4ccccc34)nn12 reading_unit=% measurement=-3.21
compound="CN1C(=O)C2(C(C#N)=C(c3ccc(Cl)cc3)Nc3c2c(-c2ccccc2)nn3-c2ccccc2)c2ccccc21 (stereo not drawn)" reading_unit=% measurement=65.3
compound=N#Cc1c(-c2ccc(F)cc2)nc(SCc2ccc(F)cc2)nc1N1CCNCC1 reading_unit=% measurement=-0.165
compound=COc1ccc(C(=O)/C=C/c2ccc3c(c2)OCCO3)cc1S(N)(=O)=O reading_unit=% measurement=87
compound="CN(C)c1nc(NCCNS(=O)(=O)c2ccc(C3=Nc4c(N)nc(N)nc4NC(c4ccc(Cl)cc4)C3)cc2)nc(N2CCOCC2)n1 (stereo not drawn)" reading_unit=% measurement=45.2
compound="O=C(O)CC1S/C(=N/N=C/c2nc3ccccc3s2)NC1=O (stereo not drawn)" reading_unit=% measurement=90.9

// next item, growth requested
Problem: Quickly give me recorded growth for `COc1ccc(-c2nc3ccc(-c4nnc(SCc5ccccc5)o4)cc3[nH]2)cc1OC`
Solution: 2.46

###

Quick reference for growth among some compounds
System: NCI-H460 lung
Method notes: NCI-60 one-dose screen, 48 h (100 = growth as untreated, 0 = no growth, -100 = all killed)
Test conditions: 10 µM unless noted
The panel holds about 83,000 compounds, 20% with a hit somewhere; the sample as a whole holds those more often.
Number only, in %; omit the unit.

Below, 5 compounds whose answers are already recorded.
compound=O=C(Nc1ccc(Cl)c(C(F)(F)F)c1)N1CCN(c2cc(-c3cn(-c4ccccc4)nc3-c3cccc(O)c3)ccn2)CC1 reading_unit=% measurement=7.84
compound=COc1sc(/C=N/NC(=O)c2[nH]c3ccc(Br)cc3c2-c2ccccc2)cc1Cl reading_unit=% measurement=1.26
compound=Cc1ccc(C(=O)Nc2cc(-n3ccnc3)cc(C(F)(F)F)c2)cc1-n1cc(-c2cnc3cccnn23)nn1 reading_unit=% measurement=97
compound=Cc1ccc(C(=O)Nc2cc(-n3ccnc3C)cc(C(F)(F)F)c2)cc1C#Cc1cnc2cccnn12 reading_unit=% measurement=5.86
compound=C[C@@H]1CN(c2ccc3ncc(C#Cc4cncc(C(=O)Nc5ccc(CN6CCN(C)CC6)c(C(F)(F)F)c5)c4)n3n2)C[C@@H](C)O1 reading_unit=% measurement=-80

Problem: Supply recorded growth for `C[C@H](NC(=O)c1ccc2c(-c3ccc(C(F)(F)F)cc3)cccc2c1)c1ccccn1` here.
Solution: 42.5

Problem: For the compound `FC(F)(F)CN1CCN(CCn2c(C(F)(F)F)cc3c(Cl)ncnc32)CC1` , give its reported growth.
Solution: -41.2

Problem: Hello, please tell me recorded growth for this one: `O=C(N/N=C/c1ccc(-c2cccc([N+](=O)[O-])c2)s1)c1[nH]c2ccc(Br)cc2c1-c1ccccc1`
Solution: 84.6

Problem: Could you please provide reported growth for `CCCCCCCCc1ccc(C(=O)Nc2cccc(O)c2)cc1` ? Thanks!
Solution: 90.5

Problem: Indicate its recorded growth; the compound in question is `CN(C)CCCNC(=S)Nc1ccc(/C=C/c2ccc(Cl)cc2)cc1`
Solution: -35.8

Problem: Give reported growth value for CCCCNc1ccc2c3c(cccc13)C(=O)N(NCC(O)COc1ccc3c(C)cc(=O)oc3c1)C2=O (configuration not stated)
Solution: 92.6

Problem: Given the compound `Cc1ccc(C(=O)Nc2cc(-c3ccncc3)cc(C(F)(F)F)c2)cc1C#Cc1cnc2cccnn12` , write its reported growth.
Solution: 51.8

Problem: For `Cc1ccccc1NC(=O)c1cccc(NC(=O)CCl)c1` , write its growth.
Solution: 41.6

Problem: Answer with the recorded growth for the compound listed here: `COc1ccccc1/C=C/c1cccc(NC(=S)NCCCCN(C)C)c1`
Solution: -74.2

Problem: State its growth for this compound: `O=C(CSc1nnc(-c2ccc(-c3nc4ccccc4[nH]3)cc2)o1)Nc1ccc(Br)cc1`
Solution: -55.2

Problem: Report growth for `Cn1cc(-c2cc3nc(-c4cn(C)c5ncc(Br)cc45)cc(N)n3n2)c2cc(F)ccc21`
Solution: 20.9

Problem: Look up and report measured growth for this entry: `Cc1ccc(S(=O)(=O)N(CCn2ccnc2[N+](=O)[O-])CCn2ccnc2[N+](=O)[O-])cc1`
Solution: 109

Problem: Input `Nc1cc2ccccc2c(=O)n1NC(=O)c1ccccc1` , output reported growth.
Solution: 105

Problem: Provide one value: measured growth of O=C(O)CC1S/C(=N/N=C/c2nc3ccccc3s2)NC1=O (configuration not stated)
Solution: 94.7

Problem: Please give the documented growth of `CCCn1c(NC(=O)c2cccc(C(N)=O)c2)nc2ccc(CN3CCCCC3)cc21`
Solution: 81.9

Problem: Please indicate growth recorded for `Nc1nc(-c2ccccc2)c(N=Nc2ccc(Cl)cc2Cl)s1`
Solution: -66.8

Problem: Please look at this compound and report its growth: `CC[C@@]12CC(C(=O)OC)=C3Nc4cc5c(cc4[C@@]34CCN(C[C@H]3O[C@H]31)[C@@H]24)[C@@H]1[C@H](O5)[C@@H](O)[C@@]2(CC)CC(C(=O)OC)=C3Nc4cc(O)ccc4[C@@]34CCN1[C@@H]24`
Solution: -26.6

Problem: Give me measured growth, please, for this compound: O=C1CCC(N2C(=O)c3cccc(NCCOCCOCCOCCC(=O)NCCCC(=O)NC(c4ccc5c(c4)OCO5)c4cc(Cl)c5cccnc5c4O)c3C2=O)C(=O)C1 (configuration not stated)
Solution: 26.6

Problem: Return value of growth for input Cc1ccc(C2CC(c3ccc(S(=O)(=O)NCCNc4nc(N(C)C)nc(N5CCOCC5)n4)cc3)=Nc3c(N)nc(N)nc3N2)cc1 (configuration not stated) , no commentary.
Solution: 53.6

Problem: For the compound `Clc1ccc(-c2nc3c4c(-c5ccccc5)c(-c5ccccc5)n(Cc5ccccc5)c4ncn3n2)cc1` , give its measured growth value.
Solution: 3.08

Problem: Using known records, supply growth for `CC(C)(C)OC(=O)N1C/C(=C\c2ccc(F)cc2)C(=O)/C(=C/c2ccc(F)cc2)C1`
Solution: 1.19

Problem: Please give the documented growth of `Nc1nn2c(-c3cc4ccccc4oc3=O)ccnc2c1N=Nc1ccccc1`
Solution: 44.4
